- Assay overview: Drug excretion in CD rat urine at 1 mg/kg, iv administered as single bolus dose
- Assay type: ADME, organism-based
- Set-up: dose 1 mg/kg, route intravenous
Parameter: dose excreted (%)
A number alone suffices; assume %.

**Query** I would be grateful if you could share the reported dose excreted for c1ccc(Cc2ncc3c(n2)CCNCC3)cc1 .
**Result** 10

###

- Assay overview: Aqueous solubility of the compound at pH 1.5 to 11.7
- Assay type: physicochemical
- Condition context: buffer
Parameter: solubility

**Query** Looking for the measured solubility of O=C(O)/C=C/C(=O)O.c1ccc(Cc2ncc3c(n2)CCNCC3)cc1 , can you help?
**Result** > 10000 µg/mL

###

- Assay overview: Intrinsic clearance in human hepatocytes assessed per 10^6 cells
- Type: ADME, cell-based, Liver, Hepatocyte
Parameter: hepatocyte CLint

**Query** # input compound: c1ccc(Cc2ncc3c(n2)CCNCC3)cc1 ; wanted: its hepatocyte CLint
**Result** < 5 µL/min/1e6 cells

###

- Assay target: UniProtKB P28335
- Assay overview: Agonist activity at human 5HT2C receptor expressed in CHO-K1 cells assessed as increase of fluorescence based calcium mobilization by FLIPR assay relative to control
- Format: functional, cell-based
Active and inactive are the calls of the source. The rule behind the calls is not given here.

Smiles notation: c1ccc(CCCc2ncc3c(n2)CNCC3)cc1
Assay target: UniProtKB P28335
Activity: inactive

Smiles notation: c1ccc(CCc2ncc3c(n2)CNCC3)cc1
Assay target: UniProtKB P28335
Activity: inactive

Smiles notation: c1ccc(-c2ncc3c(n2)CCNC3)cc1
Assay target: UniProtKB P28335
Activity: inactive

Smiles notation: c1ccc(-c2ncc3c(n2)CCNCC3)cc1
Assay target: UniProtKB P28335
Activity: inactive

###

- Tested on: Rattus norvegicus
- Assay overview: AUC (0 to infinity) in CD rat at 2 mg/kg, po administered as single dose
- Assay type: ADME, organism-based, Plasma
- Set-up: time infinity, dose 2 mg/kg, route oral
- Condition context: in vivo
Parameter: AUC

**Query** Short answer please: AUC, Rattus norvegicus, entry c1ccc(Cc2ncc3c(n2)CCNCC3)cc1
**Result** 290 ng·h/mL

###

- Assay overview: Cmax in CD rat at 2 mg/kg, po administered as single dose
- Assay type: ADME, organism-based
- Set-up: dose 2 mg/kg, route oral
- Condition context: in vivo
Parameter: Cmax (ng/mL)
Kindly provide the numeric value in ng/mL only, without the unit symbol.

**Query** Need Cmax, item c1ccc(Cc2ncc3c(n2)CCNCC3)cc1
**Result** 49

###

- Assay overview: Intrinsic clearance in rat hepatocytes assessed per 10^6 cells
- Format: ADME, cell-based, Liver, Hepatocyte
Parameter: hepatocyte CLint (µL/min/1e6 cells)
Give just the numeric value; µL/min/1e6 cells need not be written.

**Query** Need hepatocyte CLint, item c1ccc(Cc2ncc3c(n2)CCNCC3)cc1
**Result** 15

###

Each record here notes measured Emax.
- Assay target: 5-hydroxytryptamine receptor 2C (Homo sapiens) (UniProt P28335)
- Sequence (P28335 whole entry): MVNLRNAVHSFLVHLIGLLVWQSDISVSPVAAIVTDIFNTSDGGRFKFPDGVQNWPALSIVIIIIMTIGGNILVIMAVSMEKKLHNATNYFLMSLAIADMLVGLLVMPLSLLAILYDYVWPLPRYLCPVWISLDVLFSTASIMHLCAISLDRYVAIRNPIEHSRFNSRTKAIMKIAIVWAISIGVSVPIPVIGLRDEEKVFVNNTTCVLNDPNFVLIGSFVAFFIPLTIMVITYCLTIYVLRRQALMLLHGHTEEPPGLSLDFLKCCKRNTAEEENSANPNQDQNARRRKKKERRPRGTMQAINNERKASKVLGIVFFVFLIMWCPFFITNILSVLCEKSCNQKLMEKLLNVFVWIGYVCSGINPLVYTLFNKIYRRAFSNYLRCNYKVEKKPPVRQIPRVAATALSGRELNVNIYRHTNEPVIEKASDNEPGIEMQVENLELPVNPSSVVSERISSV
- Assay overview: Agonist activity at human 5HT2C receptor expressed in CHO-K1 cells assessed as increase of fluorescence based calcium mobilization by FLIPR assay relative to control
- Format: functional, cell-based
The reply should be a number in %, with the unit left off.

Smiles notation: c1ccc(-c2ncc3c(n2)CNCC3)cc1
Endpoint unit: %
Emax: 92
--
Smiles notation: Cc1cccc(Cc2ncc3c(n2)CCNCC3)c1
Endpoint unit: %
Emax: 84
--
Smiles notation: FC(F)(F)c1cccc(Cc2ncc3c(n2)CCNCC3)c1
Endpoint unit: %
Emax: 44

Next item in the queue.
**Query** Which Emax is listed for Clc1ccc(Cc2ncc3c(n2)CCNCC3)cc1 ?
**Result** 65

###

- Assay overview: Elimination half life in Beagle dog at 0.030 mg/kg, iv administered as single infusion over 1 hr
- Format: ADME, organism-based, Canis lupus familiaris
- Set-up: dose 0.03 mg/kg, route intravenous
- Condition context: in vivo, 0.03 mg/kg, read-out: beta t1/2 (converted)
Parameter: half-life (h)
Report only the number, with the unit h understood.

**Query** So what's the measured half-life for this one? c1ccc(Cc2ncc3c(n2)CCNCC3)cc1
**Result** 3.4

###

- Assay overview: Plasma clearance in CD rat at 1 mg/kg, iv administered as single bolus dose
- Assay type: ADME, organism-based
- Set-up: dose 1 mg/kg, route intravenous
Parameter: clearance (mL/min/kg)
Could you give me the number in mL/min/kg? Just the number is fine.

**Query** Record request: clearance value, item c1ccc(Cc2ncc3c(n2)CCNCC3)cc1
**Result** 51

###

- Assay overview: Intrinsic clearance in dog hepatocytes assessed per 10^6 cells
- Assay type: ADME, cell-based, Canis lupus familiaris, Liver, Hepatocyte
Parameter: hepatocyte CLint

**Query** hepatocyte CLint lookup needed for c1ccc(Cc2ncc3c(n2)CCNCC3)cc1 , thanks.
**Result** < 5 µL/min/1e6 cells

###

- Assay target: 5-hydroxytryptamine receptor 2B (Homo sapiens)
- Sequence (P41595 whole entry): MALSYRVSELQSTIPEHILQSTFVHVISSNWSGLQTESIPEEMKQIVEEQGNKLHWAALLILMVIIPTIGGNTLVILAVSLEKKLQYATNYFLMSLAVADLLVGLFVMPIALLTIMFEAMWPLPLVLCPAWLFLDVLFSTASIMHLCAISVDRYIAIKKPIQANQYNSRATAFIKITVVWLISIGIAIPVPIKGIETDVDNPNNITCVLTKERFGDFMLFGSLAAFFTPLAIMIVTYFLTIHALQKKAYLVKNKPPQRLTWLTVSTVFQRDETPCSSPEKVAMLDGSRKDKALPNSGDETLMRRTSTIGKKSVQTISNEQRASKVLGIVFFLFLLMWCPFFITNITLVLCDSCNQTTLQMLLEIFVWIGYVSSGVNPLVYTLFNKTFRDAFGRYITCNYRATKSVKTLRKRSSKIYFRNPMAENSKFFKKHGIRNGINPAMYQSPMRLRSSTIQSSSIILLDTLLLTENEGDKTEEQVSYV
- Assay overview: Agonist activity at human 5HT2B receptor expressed in CHO-K1 cells assessed as increase of fluorescence based calcium mobilization by FLIPR assay
Recorded EC50, one value per entry.
# number only, unit nM dropped from output

Here is how some molecules turned out for EC50.
Smiles notation: Clc1ccc(Cc2ncc3c(n2)CCNCC3)cc1
Assay target: 5-hydroxytryptamine receptor 2B (Homo sapiens)
Reported result: 60
//
Smiles notation: FC(F)(F)c1cccc(Cc2ncc3c(n2)CCNCC3)c1
Assay target: 5-hydroxytryptamine receptor 2B (Homo sapiens)
Reported result: 160
//
Smiles notation: Clc1ccccc1Cc1ncc2c(n1)CCNCC2
Assay target: 5-hydroxytryptamine receptor 2B (Homo sapiens)
Reported result: 178
//
Smiles notation: Cc1ccc(Cc2ncc3c(n2)CCNCC3)cc1
Assay target: 5-hydroxytryptamine receptor 2B (Homo sapiens)
Reported result: 164
//
Smiles notation: Cc1cccc(Cc2ncc3c(n2)CCNCC3)c1
Assay target: 5-hydroxytryptamine receptor 2B (Homo sapiens)
Reported result: 410
//
Smiles notation: Fc1cccc(Cc2ncc3c(n2)CCNCC3)c1
Assay target: 5-hydroxytryptamine receptor 2B (Homo sapiens)
Reported result: 183

**Query** EC50 for Cc1ccccc1Cc1ncc2c(n1)CCNCC2 ?
**Result** 1200

**Query** Any idea what EC50 was measured for Fc1ccc(Cc2ncc3c(n2)CCNCC3)cc1 ?
**Result** 610

**Query** Please give the measured EC50 for this molecule: Clc1cccc(Cc2ncc3c(n2)CCNCC3)c1
**Result** 30

**Query** Requested field: EC50. Item: Fc1ccccc1Cc1ncc2c(n1)CCNCC2
**Result** 220

###

- Assay target: 5-hydroxytryptamine receptor 2B (Homo sapiens)
- Assay overview: Agonist activity at human 5HT2B receptor expressed in CHO-K1 cells assessed as increase of fluorescence based calcium mobilization by FLIPR assay relative to control
- Assay type: functional, cell-based
Parameter: Emax (%)
Please reply with the bare figure in % and do not write the unit itself.

Smiles notation: FC(F)(F)c1cccc(Cc2ncc3c(n2)CCNCC3)c1
Assay target: 5-hydroxytryptamine receptor 2B (Homo sapiens)
Emax (%): 63
--
Smiles notation: Clc1cccc(Cc2ncc3c(n2)CCNCC3)c1
Assay target: 5-hydroxytryptamine receptor 2B (Homo sapiens)
Emax (%): 50
--
Smiles notation: Clc1ccccc1Cc1ncc2c(n1)CCNCC2
Assay target: 5-hydroxytryptamine receptor 2B (Homo sapiens)
Emax (%): 36
--
Smiles notation: Cc1ccccc1Cc1ncc2c(n1)CCNCC2
Assay target: 5-hydroxytryptamine receptor 2B (Homo sapiens)
Emax (%): 56
--
Smiles notation: Fc1cccc(Cc2ncc3c(n2)CCNCC3)c1
Assay target: 5-hydroxytryptamine receptor 2B (Homo sapiens)
Emax (%): 66

**Query** Name the reported Emax value associated with the compound Clc1ccc(Cc2ncc3c(n2)CCNCC3)cc1
**Result** 62

**Query** Fill in: Emax of Cc1ccc(Cc2ncc3c(n2)CCNCC3)cc1 is ___
**Result** 80

**Query** I have this compound here, Fc1ccc(Cc2ncc3c(n2)CCNCC3)cc1 , and I need its recorded Emax.
**Result** 90

**Query** # get_value(readout='Emax', item= Cc1cccc(Cc2ncc3c(n2)CCNCC3)c1 )
**Result** 62

**Query** Requested read-out: Emax. Entry: Fc1ccccc1Cc1ncc2c(n1)CCNCC2
**Result** 43

###

- Assay overview: Volume of distribution in CD rat at 1 mg/kg, iv administered as single bolus dose
- Format: ADME, organism-based
- Set-up: dose 1 mg/kg, route intravenous
- Condition context: in vivo
Parameter: Vd (L/kg)
Quick reminder: number only, in L/kg, skip the unit.

**Query** Request the reported Vd associated with c1ccc(Cc2ncc3c(n2)CCNCC3)cc1
**Result** 8.9

###

- Assay overview: Intrinsic clearance in rat liver microsomes
- Assay type: ADME, Microsome
Parameter: microsomal CLint (µL/min/mg)
Number only, in µL/min/mg; omit the unit.

**Query** Tell me the measured microsomal CLint of c1ccc(Cc2ncc3c(n2)CCNCC3)cc1 , please.
**Result** 28
